Experiment: Pharmacokinetic (PK) experiment in rats by gavage
Format: in vivo
Conditions: rat, plasma, po, male SD rats, 20 mg/kg
Is Tmax at least 1 h? Then y. If not, n.

Example results:
C=CC(=O)N1C[C@H](C)N(c2nc(=O)n(-c3c(C)ccnc3C(C)C)c3nc(-c4c(F)c(F)cc5ccoc45)c(Cl)cc23)C[C@H]1C [Compound 104]
y
C=CC(=O)N1CCN(c2nc(=O)n(-c3c(C)ccnc3C(C)C)c3nc(-c4c(F)ccc5c4OCO5)c(F)cc23)[C@@H](C)C1
n
C=CC(=O)N1CCN(c2nc(=O)n(-c3c(C(C)C)ccnc3C(C)C)c3nc(-c4c(F)ccc5ccoc45)c(Cl)cc23)[C@@H](C)C1
y
C=CC(=O)N1C[C@H](C)N(c2nc(=O)n(-c3c(C)ccnc3C(C)C)c3nc(-c4c(F)c(F)cc5ccoc45)c(F)cc23)C[C@H]1C (single isomer, unassigned)
y

Read the next record carefully.
Q: Record C=CC(=O)N1CCN(c2nc(=O)n(-c3c(C)ccnc3C(C)C)c3nc(-c4c(F)c(F)cc5ccoc45)c(F)cc23)[C@@H](C)C1 (single isomer, unassigned) ; criterion: Tmax no lower than 1 h. Met?
A: n

* * *

Assay: Pharmacokinetic (PK) experiment in rats by gavage
Format: in vivo
Conditions: rat, plasma, po, male SD rats, 20 mg/kg
We begin with a simple list: items and their reported Cmax.
Report the figure in ng/mL without appending any unit label.

C=CC(=O)N1CCN(c2nc(=O)n(-c3c(C)ccnc3C(C)C)c3nc(-c4c(F)c(F)cc5ccoc45)c(Cl)cc23)[C@@H](C)C1 [Compound 103]
3310

Q: Report Cmax for `C=CC(=O)N1CCN(c2nc(=O)n(-c3c(C)ccnc3C(C)C)c3nc(-c4c(F)cc(F)c5ccoc45)c(Cl)cc23)[C@@H](C)C1`
A: 3720

Q: Report Cmax for C=CC(=O)N1C[C@H](C)N(c2nc(=O)n(-c3c(C)ccnc3C(C)C)c3nc(-c4c(F)c(F)cc5ccoc45)c(F)cc23)C[C@H]1C (single isomer, unassigned)
A: 2970

Q: Report Cmax for C=CC(=O)N1CCN(c2nc(=O)n(-c3c(C)ccnc3C(C)C)c3nc(-c4c(F)c(F)cc5ccoc45)c(F)cc23)[C@@H](C)C1 (single isomer, unassigned)
A: 3180

Q: Report Cmax for C=CC(=O)N1C[C@H](C)N(c2nc(=O)n(-c3c(C)ccnc3C(C)C)c3nc(-c4c(F)c(F)cc5ccoc45)c(Cl)cc23)C[C@H]1C [Compound 104]
A: 2110

Q: Report Cmax for C=CC(=O)N1C[C@H](C)N(c2nc(=O)n(-c3c(C)ccnc3C(C)C)c3nc(-c4c(F)ccc5ccoc45)c(Cl)cc23)C[C@H]1C (single isomer, unassigned) [Compound 90-1]
A: 3720

* * *

Test: in vitro
Conditions: human, Caco-2, pH 7.4, Papp A-B Sample_01
Where a name gives a salt, the structure may show the parent alone.
MEASURED ENDPOINT: Papp A→B at 90 min, 10 μM (×10⁻⁶ cm/s)
Report the figure in ×10⁻⁶ cm/s without appending any unit label.

CC[C@H]1OC(=O)[C@H](C)[C@@H](O[C@H]2C[C@@](C)(OC)[C@@H](O)[C@H](C)O2)[C@H](C)[C@@H](O[C@@H]2O[C@H](C)C[C@H](N(C)C)[C@H]2O)[C@](C)(O)C[C@@H](C)C(=O)[C@H](C)[C@@H](O)[C@]1(C)O
0.46

Turning to the following molecule.
Q: Report Papp A→B at 90 min, 10 μM for COCCc1ccc(OCC(O)CNC(C)C)cc1 (centres unmarked) [Metoprolol Tartrate]
A: 33.3
